Source: BindingDB's records for doi:10.1021/jm00104a019

Biological target: Integrin alpha-IIb/beta-3 (Homo sapiens, UniProt P08514+P05106)
Sequence (P05106 27-788 limits assumed): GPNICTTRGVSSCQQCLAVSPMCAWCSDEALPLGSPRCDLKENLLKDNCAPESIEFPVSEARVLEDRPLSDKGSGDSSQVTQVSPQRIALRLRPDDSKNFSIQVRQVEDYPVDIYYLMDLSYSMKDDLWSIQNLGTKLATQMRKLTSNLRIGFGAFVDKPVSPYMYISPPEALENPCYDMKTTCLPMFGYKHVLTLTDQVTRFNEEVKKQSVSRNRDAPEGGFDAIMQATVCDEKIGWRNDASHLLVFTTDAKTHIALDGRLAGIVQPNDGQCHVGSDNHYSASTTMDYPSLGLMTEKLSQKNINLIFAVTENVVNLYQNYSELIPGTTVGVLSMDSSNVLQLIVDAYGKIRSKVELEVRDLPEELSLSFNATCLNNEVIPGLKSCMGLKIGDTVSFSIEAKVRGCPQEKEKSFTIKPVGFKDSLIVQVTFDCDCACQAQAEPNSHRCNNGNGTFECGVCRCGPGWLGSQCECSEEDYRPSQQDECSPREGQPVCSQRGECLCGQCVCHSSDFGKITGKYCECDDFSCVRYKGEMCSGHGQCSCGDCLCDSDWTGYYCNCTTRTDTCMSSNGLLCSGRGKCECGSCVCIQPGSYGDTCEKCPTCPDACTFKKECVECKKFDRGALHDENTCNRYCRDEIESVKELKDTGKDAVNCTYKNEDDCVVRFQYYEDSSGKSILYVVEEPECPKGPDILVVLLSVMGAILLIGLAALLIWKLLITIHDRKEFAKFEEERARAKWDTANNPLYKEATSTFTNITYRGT
Sequence (P08514 32-887 limits assumed): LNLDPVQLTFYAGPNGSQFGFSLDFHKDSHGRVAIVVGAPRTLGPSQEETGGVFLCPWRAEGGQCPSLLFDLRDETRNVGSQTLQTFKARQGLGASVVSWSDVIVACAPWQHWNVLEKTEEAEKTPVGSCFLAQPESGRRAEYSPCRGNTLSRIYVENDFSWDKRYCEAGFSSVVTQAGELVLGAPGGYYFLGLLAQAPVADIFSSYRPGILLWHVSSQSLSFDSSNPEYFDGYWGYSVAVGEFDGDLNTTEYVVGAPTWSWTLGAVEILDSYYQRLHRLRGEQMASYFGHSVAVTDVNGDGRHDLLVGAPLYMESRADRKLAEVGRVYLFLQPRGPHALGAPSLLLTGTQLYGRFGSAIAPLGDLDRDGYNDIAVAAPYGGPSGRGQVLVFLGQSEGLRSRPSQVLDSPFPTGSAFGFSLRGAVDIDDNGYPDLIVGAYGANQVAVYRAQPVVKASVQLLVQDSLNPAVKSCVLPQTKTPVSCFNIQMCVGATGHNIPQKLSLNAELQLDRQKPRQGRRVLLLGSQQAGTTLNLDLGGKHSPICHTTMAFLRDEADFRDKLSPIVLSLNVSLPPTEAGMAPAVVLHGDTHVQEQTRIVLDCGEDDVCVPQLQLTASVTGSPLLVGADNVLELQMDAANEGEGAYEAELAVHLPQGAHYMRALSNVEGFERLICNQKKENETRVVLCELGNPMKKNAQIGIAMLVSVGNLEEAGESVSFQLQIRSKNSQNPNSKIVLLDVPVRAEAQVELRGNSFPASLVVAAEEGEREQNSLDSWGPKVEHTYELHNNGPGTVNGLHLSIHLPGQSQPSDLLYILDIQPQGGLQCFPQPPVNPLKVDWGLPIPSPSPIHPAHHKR
Sequence (P08514 891-1039 limits assumed): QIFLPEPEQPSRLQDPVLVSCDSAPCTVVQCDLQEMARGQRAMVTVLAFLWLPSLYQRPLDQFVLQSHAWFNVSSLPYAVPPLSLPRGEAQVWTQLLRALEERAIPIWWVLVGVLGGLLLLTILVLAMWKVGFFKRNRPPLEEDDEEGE
Experiment: Inhibition of platelet aggregation (PRP)
Where a SMILES comes first, the peptide text is derived from it.
recorded_metric: IC50 (µM)

[[record]]
compound = "N=C(N)NCCCCCCCC(=O)N[C@@H](CC(=O)O)C(=O)N[C@@H](Cc1ccccc1)c1nnn[nH]1"
recorded_metric = "IC50"
val = 4

[[record]]
compound = "N=C(N)NCCCCCCCC(=O)N[C@@H](CC(=O)O)C(=O)NCCc1ccccc1"
recorded_metric = "IC50"
val = 60

[[record]]
compound = "NC(N)=NCCC[C@H](N)C(=O)NCC(=O)N[C@@H](CC(=O)O)C(=O)N[C@@H](Cc1ccccc1)C(=O)O (H-RGDF-OH)"
recorded_metric = "IC50"
val = 40

[[record]]
compound = "N=C(N)NCCCCCCCC(=O)N[C@@H](CC(=O)O)C(=O)N[C@@H](Cc1ccccc1)C(=O)O"
recorded_metric = "IC50"
val = 1.6

